- Measured on: T1, transmembrane TGF-α (human TGF-α positions 1 to 160) expressed on 293T cells (human, UniProt P01135 24-160)
- T1 construct: also called TGF-α/293T; TGFα/293T
- T1 sequence: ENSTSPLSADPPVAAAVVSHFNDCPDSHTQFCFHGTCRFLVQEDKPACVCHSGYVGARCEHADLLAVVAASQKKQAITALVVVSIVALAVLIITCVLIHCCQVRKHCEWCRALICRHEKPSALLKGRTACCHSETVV
- Test description: flow cytometry, culture supernatant on transmembrane TGF-α/293T

# Binder, binding result
data = [
    ("humanized chimeric anti-TGF-α antibody of MBL009-15 (antibody, human IgG1, V domains shown, tested as 293T culture supernatant; also called recombinant antibody MBL009-15) VH: VQLQESGPGLVKPSQSLSLTCTVTGYSITSDYAWNWIRQFPGNKLEWMGYISYSGSTSYNPSLKSRISITRDTSKNQFFLQLNSVTTEDTATYYCARGGITRFAYWGQGTLVTVSA VL: DIQMTQTTSSLSASLGDRLTISCRASQDIRNYLNWYQQKPDGTVKLLIYYTSRLHSGVPSRFSGSGSGTDYSLTISNLEQEDIATYFCQQGNTLPWTFGGGTKLEIK", "binds"),
    ("humanized chimeric anti-TGF-α antibody of MBL016-8 (antibody, human IgG1, V domains shown, tested as 293T culture supernatant; also called recombinant antibody MBL016-8) VH: VQLQQSGAELVRPGASVKLSCTASGFNIKDDYMYWVKQRPEQGLEWIGRIDPANGNTKYAPKFQDKATITADTSSNTAYLHLSSLTSEDTAVFYCAYRRAYWGQGTLVTVSA VL: DIQMTQSPSSLSASLGGKVTITCKASQDINKYIAWYQHKPGKGPRLFIHYTSKLQPGIPSRFSGSGSGRDYSFSISNLEPEDIATYYCLQYDNLLYTFGGGTKLEIK", "binds"),
    ("humanized chimeric anti-TGF-α antibody of MBL292-1 (antibody, human IgG1, V domains shown, tested as 293T culture supernatant; also called recombinant antibody MBL292-1) VH: VQLQQSGAELVRPGASVKLSCTASGFNIKDDYMHWMKQRPEQGLEWIGRIDPANGNTKYAPKFQDKATITADTSSNTAYLQLSSLTSEDTAVYYCSRMGLLRGYWGQGTTLTVSS VL: IQMTQSSSSLSVSLGDRVTITCKASVHINSWLAWYQQKPGNAPRLLISGATNLKTGVPSRFSGSASGKDYTLSITSLQTEDVATYYCQQYWDTPWTFGGGTKLEIK", "binds"),
]
